molecular target: CGRP receptor (SK-N-MC membrane) (Homo sapiens, UniProt O60894+Q16602); construct: Purified SK-N-MC membrane was purchased from Perkin Elmer; purchased Perkin Elmer; host or cells: SK-N-MC membrane; assay: I125-CGRP binding displacement assay on purified SK-N-MC membrane
Sequence (Q16602 23-461): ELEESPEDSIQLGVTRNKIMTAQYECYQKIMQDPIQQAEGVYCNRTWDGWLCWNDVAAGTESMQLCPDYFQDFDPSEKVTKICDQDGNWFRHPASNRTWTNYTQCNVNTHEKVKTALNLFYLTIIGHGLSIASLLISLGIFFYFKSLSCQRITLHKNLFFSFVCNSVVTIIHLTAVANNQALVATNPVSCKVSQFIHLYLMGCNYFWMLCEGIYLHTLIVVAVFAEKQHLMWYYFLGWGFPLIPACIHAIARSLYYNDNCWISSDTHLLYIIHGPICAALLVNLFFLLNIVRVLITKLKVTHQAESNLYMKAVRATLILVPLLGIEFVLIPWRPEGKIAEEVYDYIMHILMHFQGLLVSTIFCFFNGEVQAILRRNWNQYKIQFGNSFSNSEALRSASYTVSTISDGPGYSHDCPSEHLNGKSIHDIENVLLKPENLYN
Sequence (O60894 27-148): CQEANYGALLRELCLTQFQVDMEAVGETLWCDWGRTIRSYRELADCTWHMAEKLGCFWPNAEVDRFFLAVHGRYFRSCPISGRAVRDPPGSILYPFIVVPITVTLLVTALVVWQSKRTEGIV
pKi: −log10 of the molar value.
measured quantity: pKi

Known results for compounds:
CC(C)CCN1C(=O)C(CC(=O)N2CCC(N3CCc4ccccc4NC3=O)CC2)SC1c1ccc(F)cc1F (centres unmarked)
> 6.00
CC(C)CCN1C(=O)C(CC(=O)N2CCC(N3CCc4ccccc4NC3=O)CC2)SC1C1CCCCC1 (centres unmarked)
> 6.00

// fetch pKi given entry CC(C)(C)CCN1C(=O)[C@H](CC(=O)N2CCC(n3c(=O)[nH]c4ncccc43)CC2)SC1c1cccc(F)c1C1CCN(C(=O)OC(C)(C)C)CC1 (some centres unmarked) 5.30 to 6.00

// fetch pKi given entry CC(C)CCN1C(=O)C(CC(=O)N2CCC3(CC2)CC(=O)c2ccccc2O3)SC1c1ccccc1N1CCN(C)CC1 (centres unmarked) > 6.00

----------
List of IC50 values.
target: endogenous CGRP receptor (Homo sapiens, UniProt O60894+Q16602); assay: CGRP functional antagonism using SK-N-MC-BLA (4C10), β-lactamase transcriptional reporter assay; details: SK-N-MC (4C10) cells, inhibition of β-lactamase expression in the presence of 200 pM CGRP
Sequence (Q16602 23-461): as the sequence (Q16602 23-461) above
Sequence (O60894 27-148): as the sequence (O60894 27-148) above

CC(C)(C)CCN1C(=O)C(CC(=O)N2CCC(N3Cc4ccccc4NC3=O)CC2)SC1c1cccc2cc[nH]c12 (centres unmarked) [Compound 168]
1000 to 5000 nM
Cc1cc(C2SC(CC(=O)N3CCC(N4CCc5ccccc5NC4=O)CC3)C(=O)N2CCC(C)C)cc2cn[nH]c12 (centres unmarked) [Compound 206]
< 1000 nM
CC(C)N1CCN(c2c(F)cccc2[C@@H]2S[C@@](C)(CC(=O)N3CCC(N4CCc5ccccc5NC4=O)CC3)C(=O)N2CCC(C)(C)C)CC1 [Compound 431]
< 1000 nM
COc1ccccc1C1SC(CC(=O)N2CCC(n3cc(-c4ccccc4)[nH]c3=O)CC2)C(=O)N1CCC(C)C (centres unmarked) [Compound 64]
1000 to 5000 nM

Then there is this compound:
// fetch IC50 given entry C[C@@H]1CN(c2c(F)cccc2[C@H]2S[C@@H](CC(=O)N3CCC(N4CCc5ccccc5NC4=O)CC3)C(=O)N2CCC(C)(C)C)C[C@H](C)N1 [Compound 474] 1000 to 5000 nM

----------
List of pIC50 values.
molecular target: endogenous CGRP receptor (Homo sapiens, UniProt O60894+Q16602); assay: CGRP functional antagonism using SK-N-MC-BLA (4C10), β-lactamase transcriptional reporter assay; settings: SK-N-MC (4C10) cells, inhibition of β-lactamase expression in the presence of 200 pM CGRP
pIC50: −log10 of the molar value.

Known results for compounds:
CC(C)(C)CCN1C(=O)C(CC(=O)N2CCC(N3CCc4ccccc4NC3=O)CC2)SC1c1cccc2cc[nH]c12 (stereo not shown) [Compound 130]
5.30 to 6.00
CN1CCN(c2ccc(F)cc2C2SC(CC(=O)N3CCC(n4c(=O)[nH]c5ncccc54)CC3)C(=O)N2CCC(C)(C)C)CC1 (stereo not shown) [Compound 353]
> 6.00

// fetch pIC50 given entry CN(C)C1CCN(c2c(F)cccc2[C@@H]2S[C@@H](CC(=O)N3CCC(n4c(=O)[nH]c5ncccc54)CC3)C(=O)N2CCC(C)(C)C)C1 (stereo partly shown) [Compound 456] 5.30 to 6.00

// fetch pIC50 given entry CN1CCC(N2CCN(c3ccccc3C3SC(CC(=O)N4CCC(N5CCc6ccccc6NC5=O)CC4)C(=O)N3CCC(C)(C)C)CC2)CC1 (stereo not shown) [Compound 379] > 6.00

// fetch pIC50 given entry O=C(CC1SC(c2ccccc2)N(Cc2cccnc2)C1=O)N1CCC(N2Cc3ccccc3NC2=O)CC1 (stereo not shown) [Compound 278] > 6.00

// fetch pIC50 given entry CC(C)CCN1C(=O)C(CC(=O)N2CCC(N3Cc4ccccc4NC3=O)CC2)SC1CC(C)(C)C (stereo not shown) [Compound 276] 5.30 to 6.00

// fetch pIC50 given entry CC(C)(C)CCN1C(=O)C(CC(=O)N2CCC(n3c(=O)[nH]c4ccccc43)CC2)S[C@H]1c1ccccc1N1CCC(O)CC1 (stereo partly shown) [Compound 301] > 6.00

Values compiled from patent US8163737B2.
